# target_desc: SHP2 protein (Homo sapiens, UniProt Q06124)
# Sequence (Q06124 1-593): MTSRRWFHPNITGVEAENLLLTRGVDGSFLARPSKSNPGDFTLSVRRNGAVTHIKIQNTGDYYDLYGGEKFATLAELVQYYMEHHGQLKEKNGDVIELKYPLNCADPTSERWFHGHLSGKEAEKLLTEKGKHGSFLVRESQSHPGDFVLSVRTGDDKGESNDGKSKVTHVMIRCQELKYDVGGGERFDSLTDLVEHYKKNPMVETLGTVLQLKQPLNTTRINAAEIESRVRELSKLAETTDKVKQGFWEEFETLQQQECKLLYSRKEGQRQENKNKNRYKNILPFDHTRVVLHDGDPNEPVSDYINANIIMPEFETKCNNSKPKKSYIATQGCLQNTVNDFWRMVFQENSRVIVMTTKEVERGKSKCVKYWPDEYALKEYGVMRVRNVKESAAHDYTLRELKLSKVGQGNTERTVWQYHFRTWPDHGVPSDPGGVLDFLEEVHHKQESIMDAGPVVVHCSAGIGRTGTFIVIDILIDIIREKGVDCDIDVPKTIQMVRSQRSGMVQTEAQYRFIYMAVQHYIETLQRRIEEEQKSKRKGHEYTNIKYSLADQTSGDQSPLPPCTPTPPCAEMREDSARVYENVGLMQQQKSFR
# assay_protocol: Measurement of SHP2 protein degradation in MV-4-11 cells (western blotting)
# Type: cell-based
# Parameters: endogenous in cells; host or cells: MV-4-11
# condition_info: MV-4-11 cells, 100 nM, 24 hours
metric_name: SHP2 degradation (%) 100 nM

molecule | metric_name | experimental_result
Cc1ncsc1-c1ccc(CNC(=O)[C@@H]2C[C@@H](O)CN2C(=O)[C@@H](NC(=O)C2(F)CC2)C(C)(C)C)c(OCCN2CCN(c3cnc(C(=O)Nc4cccc(Sc5cnc(N6CCC(C)(CN)CC6)cn5)c4Cl)nc3)CC2)c1 | SHP2 degradation (%) 100 nM | 97.5
Cc1ncsc1-c1ccc(CNC(=O)[C@@H]2C[C@@H](O)CN2C(=O)[C@@H](NC(=O)C2(F)CC2)C(C)(C)C)c(OCCNC(=O)c2cnc(N3CCC(CCCC(=O)Nc4cccc(Sc5cnc(N6CCC(C)(CN)CC6)cn5)c4Cl)CC3)nc2)c1 | SHP2 degradation (%) 100 nM | 95
Cc1ncsc1-c1ccc(CNC(=O)[C@@H]2C[C@@H](O)CN2C(=O)[C@@H](NC(=O)C2(F)CC2)C(C)(C)C)c(OCCN2CCN(C(=O)CC(=O)Nc3cccc(Sc4ncc(N5CCC(C)(CN)CC5)nc4N)c3Cl)CC2)c1 | SHP2 degradation (%) 100 nM | 97.8
Cc1ncsc1-c1ccc(CNC(=O)[C@@H]2C[C@@H](O)CN2C(=O)[C@@H](NC(=O)C2(F)CC2)C(C)(C)C)c(OCCC2CCN(C(=O)CC(=O)Nc3cccc(Sc4ncc(N5CCC(C)(N)CC5)nc4N)c3Cl)CC2)c1 | SHP2 degradation (%) 100 nM | 93
Cc1ncsc1-c1ccc(CNC(=O)[C@@H]2C[C@@H](O)CN2C(=O)[C@@H](NC(=O)C2(F)CC2)C(C)(C)C)c(OCCN2CCN(C(=O)CC(=O)Nc3cccc(Sc4cnc(N5CCC(C)(CN)CC5)cn4)c3Cl)[C@@H](C)C2)c1 | SHP2 degradation (%) 100 nM | 97
Cc1ncsc1-c1ccc(CNC(=O)[C@@H]2C[C@@H](O)CN2C(=O)[C@@H](NC(=O)C2(F)CC2)C(C)(C)C)c(OCC2CCN(C(=O)CC(=O)Nc3cccc(Sc4cnc(N5CCC(C)(N)CC5)cn4)c3Cl)CC2)c1 | SHP2 degradation (%) 100 nM | 95.5
Cc1ncsc1-c1ccc(CNC(=O)[C@@H]2C[C@@H](O)CN2C(=O)[C@@H](NC(=O)C2(F)CC2)C(C)(C)C)c(OCCN2CCN(C(=O)C(C)C(=O)Nc3cccc(Sc4cnc(N5CCC(C)(CN)CC5)cn4)c3Cl)CC2)c1 (some centres unmarked) | SHP2 degradation (%) 100 nM | 99.9
Cc1ncsc1-c1ccc(CNC(=O)[C@@H]2C[C@@H](O)CN2C(=O)[C@@H](NC(=O)C2(F)CC2)C(C)(C)C)c(OCCC2CCN(C(=O)CCC(=O)Nc3cccc(Sc4cnc(N5CCC(C)(CN)CC5)cn4)c3Cl)CC2)c1 | SHP2 degradation (%) 100 nM | 91.0

###

# target_desc: SHP2 protein (Homo sapiens, UniProt Q06124)
# Sequence (Q06124 1-593): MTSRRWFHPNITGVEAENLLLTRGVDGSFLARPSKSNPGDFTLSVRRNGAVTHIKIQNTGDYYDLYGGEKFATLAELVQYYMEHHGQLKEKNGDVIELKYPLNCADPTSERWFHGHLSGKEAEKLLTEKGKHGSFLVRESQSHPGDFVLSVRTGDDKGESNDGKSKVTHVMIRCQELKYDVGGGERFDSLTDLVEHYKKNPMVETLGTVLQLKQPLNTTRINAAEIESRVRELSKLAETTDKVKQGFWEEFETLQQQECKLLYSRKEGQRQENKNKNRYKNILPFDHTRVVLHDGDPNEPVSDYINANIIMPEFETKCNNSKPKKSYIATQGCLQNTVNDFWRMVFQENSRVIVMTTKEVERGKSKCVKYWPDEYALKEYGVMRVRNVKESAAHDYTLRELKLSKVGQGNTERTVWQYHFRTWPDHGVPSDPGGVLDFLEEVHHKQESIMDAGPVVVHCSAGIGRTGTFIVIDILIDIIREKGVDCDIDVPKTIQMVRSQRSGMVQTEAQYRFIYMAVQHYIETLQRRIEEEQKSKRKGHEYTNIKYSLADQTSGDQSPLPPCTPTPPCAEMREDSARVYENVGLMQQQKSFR
# assay_protocol: Measurement of SHP2 protein degradation in MV-4-11 cells (western blotting)
# Assay type: cell-based
# Design: endogenous in cells; host or cells: MV-4-11
# condition_info: MV-4-11 cells, 10 nM, 24 hours
metric_name: SHP2 degradation (%) 10 nM

The cases that follow already have their SHP2 degradation (%) 10 nM on record.
compound | output_unit | SHP2 degradation (%) 10 nM
Cc1ncsc1-c1ccc(CNC(=O)[C@@H]2C[C@@H](O)CN2C(=O)[C@@H](NC(=O)C2(F)CC2)C(C)(C)C)c(OCCN2CCN(c3ccc(C(=O)Nc4cccc(Sc5cnc(N6CCC(C)(CN)CC6)cn5)c4Cl)nn3)CC2)c1 [Example 85] | % | 73
CC(=O)N[C@H](C(=O)N1C[C@H](O)C[C@H]1C(=O)NCc1ccc(-c2scnc2C)cc1OCCN1CCN(C(=O)CC(=O)Nc2cccc(Sc3cnc(N4CCC(C)(CN)CC4)cn3)c2Cl)CC1)C(C)(C)C [Example 57] | % | 95.7
Cc1ncsc1-c1ccc(CNC(=O)[C@@H]2C[C@@H](O)CN2C(=O)[C@@H](NC(=O)C2(F)CC2)C(C)(C)C)c(OCCCC2CCN(C(=O)C3(C(=O)Nc4cccc(Sc5cnc(N6CCC(C)(CN)CC6)cn5)c4Cl)CC3)CC2)c1 [Example 48] | % | 18.6
Cc1ncsc1-c1ccc(CNC(=O)[C@@H]2C[C@@H](O)CN2C(=O)[C@@H](NC(=O)C2(F)CC2)C(C)(C)C)c(OCCN2CCN(C(=O)CC(=O)Nc3cccc(Sc4ncc(N5CCC(C)(N)CC5)nc4N)c3Cl)CC2)c1 [Example 54] | % | 85.8
Cc1ncsc1-c1ccc(CNC(=O)[C@@H]2C[C@@H](O)CN2C(=O)[C@@H](NC(=O)C2(F)CC2)C(C)(C)C)c(OCCN2CCN(c3ccc(C(=O)Nc4cccc(Sc5cnc(N6CCC(C)(CN)CC6)cn5)c4Cl)cn3)CC2)c1 [Example 82] | % | 16.2
CC(=O)N[C@H](C(=O)N1C[C@H](O)C[C@H]1C(=O)NCc1ccc(-c2scnc2C)cc1OCCCN1CCC(CC(=O)Nc2cccc(Sc3cnc(N4CCC(C)(CN)CC4)cn3)c2Cl)CC1)C(C)(C)C [Example 12] | % | 23.9
Cc1ncsc1-c1ccc(CNC(=O)[C@@H]2C[C@@H](O)CN2C(=O)[C@@H](NC(=O)C2(F)CC2)C(C)(C)C)c(OCCC2CCN(C(=O)CC(=O)Nc3cccc(Sc4ncc(N5CCC(C)(CN)CC5)nc4N)c3Cl)CC2)c1 [Example 37] | % | 80.5
Cc1ncsc1-c1ccc(CNC(=O)[C@@H]2C[C@@H](O)CN2C(=O)[C@@H](NC(=O)C2(F)CC2)C(C)(C)C)c(OCC2CCN(C(=O)CC(=O)Nc3cccc(Sc4ncc(N5CCC(C)(N)CC5)nc4N)c3Cl)CC2)c1 [Example 30] | % | 71.5

P. Cc1ncsc1-c1ccc(CNC(=O)[C@@H]2C[C@@H](O)CN2C(=O)[C@@H](NC(=O)C2(F)CC2)C(C)(C)C)c(OCCCC2CCN(CC(=O)Nc3cccc(Sc4cnc(N5CCC(C)(CN)CC5)cn4)c3Cl)CC2)c1 [Example 71]
Q. Cc1ncsc1-c1ccc(CNC(=O)[C@@H]2C[C@@H](O)CN2C(=O)[C@@H](NC(=O)C2(F)CC2)C(C)(C)C)c(OCCN2CCN(C(=O)CC(=O)Nc3cccc(Sc4cnc(N5CCC(C)(N)CC5)cn4)c3Cl)CC2)c1 [Example 53]
R. Cc1ncsc1-c1ccc(CNC(=O)[C@@H]2C[C@@H](O)CN2C(=O)[C@@H](NC(=O)C2(F)CC2)C(C)(C)C)c(OCCN2CCN(C(=O)C(C)(C)C(=O)Nc3cccc(Sc4cnc(N5CCC(C)(CN)CC5)cn4)c3Cl)CC2)c1 [Example 59]
S. Cc1ncsc1-c1ccc(CNC(=O)[C@@H]2C[C@@H](O)CN2C(=O)[C@@H](NC(=O)C2(F)CC2)C(C)(C)C)c(OC2CC3(CCN(C(=O)CC(=O)N(C)c4cccc(Sc5cnc(N6CCC(C)(CN)CC6)cn5)c4Cl)CC3)C2)c1 [Example 51]
Arrange the 4 compounds by rising SHP2 degradation (%) 10 nM, starting with the smallest. Reply with the item labels sorted in the order that was asked for.
R, P, S, Q
(R: −2.0%, P: −1.0%, S: 4.7%, Q: 83.9%)
